Origin of measurements: patent US5506259A

molecular target: endothelin converting enzyme (ECE) (Oryctolagus cuniculus); construct: The left saphenous artery was removed and cleaned of the surrounding tissue; assay: In vitro ECE-inhibitory activity (human Big endothelin-induced contraction of rabbit left saphenous artery rings; inhibition of endothelin formation); details: human Big endothelin 3×10^-8 M, compound in contact 30 minutes, 37° C.
Sequence (A0A5F9CTJ8 1-783): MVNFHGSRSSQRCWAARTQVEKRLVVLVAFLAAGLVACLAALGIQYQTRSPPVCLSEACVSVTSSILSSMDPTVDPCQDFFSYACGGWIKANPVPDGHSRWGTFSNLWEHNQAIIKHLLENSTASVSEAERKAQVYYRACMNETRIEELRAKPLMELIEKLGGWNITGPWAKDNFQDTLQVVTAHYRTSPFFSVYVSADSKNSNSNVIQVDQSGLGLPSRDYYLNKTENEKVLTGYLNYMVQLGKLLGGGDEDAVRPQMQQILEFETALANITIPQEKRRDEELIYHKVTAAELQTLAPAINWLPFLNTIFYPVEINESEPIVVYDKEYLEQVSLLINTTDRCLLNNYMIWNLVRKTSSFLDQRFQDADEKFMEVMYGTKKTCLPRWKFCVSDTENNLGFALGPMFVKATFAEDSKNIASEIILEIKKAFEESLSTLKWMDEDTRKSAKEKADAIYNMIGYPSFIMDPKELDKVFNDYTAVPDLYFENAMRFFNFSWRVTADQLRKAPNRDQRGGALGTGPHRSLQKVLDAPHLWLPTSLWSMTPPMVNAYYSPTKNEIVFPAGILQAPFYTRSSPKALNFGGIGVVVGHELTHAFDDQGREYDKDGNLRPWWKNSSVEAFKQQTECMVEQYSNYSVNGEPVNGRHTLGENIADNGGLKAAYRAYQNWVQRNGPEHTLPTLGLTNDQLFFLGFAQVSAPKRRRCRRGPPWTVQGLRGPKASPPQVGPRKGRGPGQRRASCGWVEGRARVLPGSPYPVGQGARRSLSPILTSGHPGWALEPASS

>  <COMPOUND>
O=C(O)c1cc(NC(=O)C(CS)Cc2ccc(Cl)cc2)c[nH]1 (centres unmarked) [compound 9]

>  <MEASUREMENT_TARGET>
endothelin converting enzyme (ECE) (Oryctolagus cuniculus)

>  <UNITS_OF_MEASURE>
nM

>  <IC50>
4

$$$$
>  <COMPOUND>
O=C(O)c1cc(NC(=O)C(CS)Cc2cccnc2)cs1 (centres unmarked) [compound 6]

>  <MEASUREMENT_TARGET>
endothelin converting enzyme (ECE) (Oryctolagus cuniculus)

>  <UNITS_OF_MEASURE>
nM

>  <IC50>
1

$$$$
>  <COMPOUND>
COc1cccc(CC(CS)C(=O)Nc2c[nH]c(C(=O)O)c2)c1 (centres unmarked) [compound 13]

>  <MEASUREMENT_TARGET>
endothelin converting enzyme (ECE) (Oryctolagus cuniculus)

>  <UNITS_OF_MEASURE>
nM

>  <IC50>
3

$$$$
>  <COMPOUND>
O=C(O)c1cc(NC(=O)C(CS)Cc2ccccc2)c[nH]1 (centres unmarked) [compound 4]

>  <MEASUREMENT_TARGET>
endothelin converting enzyme (ECE) (Oryctolagus cuniculus)

>  <UNITS_OF_MEASURE>
nM

>  <IC50>
2

$$$$
>  <COMPOUND>
O=C(O)c1cc(NC(=O)C(CS)Cc2ccccc2)cs1 (centres unmarked) [compound 2]

>  <MEASUREMENT_TARGET>
endothelin converting enzyme (ECE) (Oryctolagus cuniculus)

>  <UNITS_OF_MEASURE>
nM

>  <IC50>
2

$$$$
